Numbers sourced from patent US20220125765A1.

# assay name: Stability in human cryopreserved hepatocytes without and with cimetidine or thiabendazole (Example 6)
# measurement context: human, cryopreserved hepatocytes, with cimetidine 300 μM, t½, substrate 1 μM, cimetidine 300 μM
quantity name: half-life at 1 μM (min)
One number for each entry, in min.

Prompt line: Any idea what its half-life at 1 μM is? The molecule is "CCOc1ccc2ccc(=O)oc2c1"
Response line: 23.2

* * *

# assay name: in vitro
# measurement context: human, cryopreserved hepatocytes (suspension), with cimetidine 100 µM
quantity name: hepatocyte CLint at 1 µM (µL/min/1e6 cells)
Numbers only, in µL/min/1e6 cells.

Prompt line: Any idea what its hepatocyte CLint at 1 µM is? The molecule is COC(=O)Nc1nc2ccc(C(=O)c3ccccc3)cc2[nH]1 [Mebendazole]
Response line: 18

* * *

# assay name: Stability in human cryopreserved hepatocytes without and with cimetidine or furafylline (Example 5)
# Format: in vitro ADME
# measurement context: human, cryopreserved hepatocytes, with cimetidine 30 μM, substrate 1 μM, 30 μM cimetidine; read-out: intrinsic clearance
quantity name: hepatocyte CLint at 1 µM (µL/min/1e6 cells)
Numbers only, in µL/min/1e6 cells.

Prompt line: Any idea what its hepatocyte CLint at 1 µM is? The compound is "COC(=O)Nc1nc2ccc(C(=O)c3ccccc3)cc2[nH]1"
Response line: 13.2

* * *

# assay name: in vitro
# measurement context: human, cryopreserved hepatocytes (suspension), with cimetidine 30 µM
quantity name: hepatocyte CLint at 1 µM

Prompt line: Any idea what its hepatocyte CLint at 1 µM is? The molecule is "COC(=O)Nc1nc2ccc(C(=O)c3ccccc3)cc2[nH]1"
Response line: 24.8 µL/min/1e6 cells

* * *

# assay name: Stability in human cryopreserved hepatocytes without and with cimetidine or furafylline (Example 5)
# Type: in vitro ADME
# measurement context: human, cryopreserved hepatocytes (suspension), in the presence of cimetidine (30-300 μM); read-out: half-life, maximum
quantity name: half-life at 1 μM

Prompt line: Any idea what its half-life at 1 μM is? The molecule is COC(=O)Nc1nc2ccc(C(=O)c3ccccc3)cc2[nH]1 [Mebendazole]
Response line: ≤ 2.32 h

* * *

# assayed system: CYP1A2 (Homo sapiens, UniProt P05177)
# Sequence (P05177 whole entry): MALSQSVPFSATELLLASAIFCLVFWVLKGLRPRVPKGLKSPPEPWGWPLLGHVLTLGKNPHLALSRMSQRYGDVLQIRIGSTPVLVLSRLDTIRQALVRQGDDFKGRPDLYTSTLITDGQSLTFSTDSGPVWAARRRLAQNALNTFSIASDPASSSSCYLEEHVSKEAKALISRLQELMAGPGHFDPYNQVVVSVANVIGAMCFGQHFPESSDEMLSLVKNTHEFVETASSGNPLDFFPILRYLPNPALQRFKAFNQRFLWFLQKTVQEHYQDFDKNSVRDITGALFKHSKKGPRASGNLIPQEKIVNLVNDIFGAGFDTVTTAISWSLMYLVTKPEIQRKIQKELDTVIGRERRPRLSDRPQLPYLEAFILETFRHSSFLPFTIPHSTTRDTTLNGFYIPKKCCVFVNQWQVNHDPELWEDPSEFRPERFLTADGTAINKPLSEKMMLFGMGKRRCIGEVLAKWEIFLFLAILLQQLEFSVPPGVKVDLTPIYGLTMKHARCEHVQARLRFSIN
# assay name: Cytochrome P450 reaction phenotyping, recombinant CYP1A2 (Bactosomes)
# measurement context: human, recombinant enzyme, pH 7.4
quantity name: half-life at 1 μM
Please answer using the number first and the unit second.

Prompt line: Any idea what its half-life at 1 μM is? The molecule is CCC[S+]([O-])c1ccc2[nH]c(NC(=O)OC)nc2c1 (stereo not shown) [Ricobendazole, albendazole sulphoxide]
Response line: 4 h

* * *

# assayed system: CYP2C9 (Homo sapiens)
# Sequence (P11712 whole entry): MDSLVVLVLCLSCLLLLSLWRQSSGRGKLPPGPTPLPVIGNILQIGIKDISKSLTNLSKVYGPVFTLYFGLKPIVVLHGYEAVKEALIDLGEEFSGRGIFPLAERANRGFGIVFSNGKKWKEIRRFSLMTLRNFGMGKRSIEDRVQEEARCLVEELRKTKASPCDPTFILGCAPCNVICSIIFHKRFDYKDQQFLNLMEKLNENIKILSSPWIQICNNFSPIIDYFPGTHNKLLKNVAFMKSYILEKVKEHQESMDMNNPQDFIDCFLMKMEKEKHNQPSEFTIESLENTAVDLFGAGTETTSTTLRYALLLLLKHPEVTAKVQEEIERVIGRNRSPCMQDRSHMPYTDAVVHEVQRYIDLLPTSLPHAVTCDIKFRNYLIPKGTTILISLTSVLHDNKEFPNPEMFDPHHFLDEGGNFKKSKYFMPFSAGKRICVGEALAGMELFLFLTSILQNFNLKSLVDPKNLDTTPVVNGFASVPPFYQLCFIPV
# assay name: Cytochrome P450 reaction phenotyping, recombinant CYP2C9 (Bactosomes)
# measurement context: human, recombinant enzyme, pH 7.4
quantity name: half-life at 1 μM (h)
Numbers only, in h.

Prompt line: Any idea what its half-life at 1 μM is? The molecule is CCC[S+]([O-])c1ccc2[nH]c(NC(=O)OC)nc2c1 (stereo not shown) [Ricobendazole, albendazole sulphoxide]
Response line: 4.53

* * *

# assay name: Stability in human liver microsomes without and with cimetidine or furafylline (Example 4)
# Assay type: in vitro ADME
# measurement context: human, liver microsomes, pH 7.4, with furafylline 30 μM, substrate 1 μM, plus 30 μM furafylline
quantity name: microsomal CLint at 1 μM (µL/min/mg)
Answers are plain numbers, in µL/min/mg.

# compound, microsomal CLint at 1 μM [µL/min/mg]
measured = [
    ("CCOc1ccc(NC(C)=O)cc1 [Phenacetin]", 2.71),
]

Prompt line: Any idea what its microsomal CLint at 1 μM is? The compound is COC(=O)Nc1nc2ccc(C(=O)c3ccccc3)cc2[nH]1 [Mebendazole]
Response line: 0.336

* * *

# assay name: Stability in human cryopreserved hepatocytes without and with cimetidine or thiabendazole (Example 6)
# measurement context: human, cryopreserved hepatocytes, with thiabendazole 100 μM, t½, substrate 1 μM, thiabendazole 100 μM
quantity name: half-life at 1 μM (h)
Numbers only, in h.

Prompt line: Any idea what its half-life at 1 μM is? The molecule is "CCOc1ccc2ccc(=O)oc2c1"
Response line: 5.72

* * *

# assayed system: BCRP (Homo sapiens, UniProt Q9UNQ0)
# Sequence (Q9UNQ0 1-655): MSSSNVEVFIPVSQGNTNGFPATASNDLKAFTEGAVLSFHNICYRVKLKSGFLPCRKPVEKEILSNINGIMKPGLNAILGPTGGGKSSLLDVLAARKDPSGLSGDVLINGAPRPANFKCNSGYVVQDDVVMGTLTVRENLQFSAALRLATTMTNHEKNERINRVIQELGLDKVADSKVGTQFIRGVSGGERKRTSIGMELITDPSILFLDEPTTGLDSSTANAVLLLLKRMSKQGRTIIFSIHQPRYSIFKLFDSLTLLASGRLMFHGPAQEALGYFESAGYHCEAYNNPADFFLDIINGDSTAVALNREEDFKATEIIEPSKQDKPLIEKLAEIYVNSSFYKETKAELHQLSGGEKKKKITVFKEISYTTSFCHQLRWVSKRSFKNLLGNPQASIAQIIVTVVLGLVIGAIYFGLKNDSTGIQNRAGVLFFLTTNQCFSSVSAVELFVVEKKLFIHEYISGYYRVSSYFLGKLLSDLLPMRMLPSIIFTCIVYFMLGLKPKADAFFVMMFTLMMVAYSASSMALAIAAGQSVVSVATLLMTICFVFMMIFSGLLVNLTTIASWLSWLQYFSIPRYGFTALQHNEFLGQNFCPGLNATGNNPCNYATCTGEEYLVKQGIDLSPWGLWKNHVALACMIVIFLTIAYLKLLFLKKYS
# assay name: in vitro
# measurement context: Caco-2, Papp Rep 1
quantity name: Papp A→B at 120 min, 10 μM (×10⁻⁶ cm/s)
Numbers only, in ×10⁻⁶ cm/s.

Prompt line: Value wanted: Papp A→B at 120 min, 10 μM (BCRP (Homo sapiens, UniProt Q9UNQ0)) of entry "COC(=O)Nc1nc2ccc(C(=O)c3ccccc3)cc2[nH]1"
Response line: 19.7

* * *

# assayed system: CYP2D6 (Homo sapiens, UniProt P10635)
# Sequence (P10635 whole entry): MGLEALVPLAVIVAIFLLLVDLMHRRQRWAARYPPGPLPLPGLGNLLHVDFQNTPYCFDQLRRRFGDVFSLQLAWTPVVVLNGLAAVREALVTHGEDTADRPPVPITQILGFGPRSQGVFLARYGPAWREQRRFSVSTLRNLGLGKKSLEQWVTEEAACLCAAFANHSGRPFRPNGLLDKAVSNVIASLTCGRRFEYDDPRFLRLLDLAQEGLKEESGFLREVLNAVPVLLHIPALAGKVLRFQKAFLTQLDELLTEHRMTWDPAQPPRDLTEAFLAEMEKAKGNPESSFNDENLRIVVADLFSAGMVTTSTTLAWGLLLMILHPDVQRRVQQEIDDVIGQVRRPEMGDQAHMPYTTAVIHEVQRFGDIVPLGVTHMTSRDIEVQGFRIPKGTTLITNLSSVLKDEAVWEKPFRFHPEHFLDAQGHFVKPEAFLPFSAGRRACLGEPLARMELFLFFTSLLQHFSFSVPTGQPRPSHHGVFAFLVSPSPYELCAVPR
# assay name: Cytochrome P450 reaction phenotyping, recombinant CYP2D6 (Bactosomes)
# measurement context: human, recombinant enzyme, pH 7.4
quantity name: half-life at 1 μM (h)
Numbers only, in h.

Prompt line: Any idea what its half-life at 1 μM is? The compound is CCC[S+]([O-])c1ccc2[nH]c(NC(=O)OC)nc2c1 (stereo not shown) [Ricobendazole, albendazole sulphoxide]
Response line: 7.75

* * *

# Test system: OVXF 899L
# assay name: 2D monolayer CellTiter-Blue viability, ovarian cancer OVXF 899L (P-gp expressing, multidrug resistant)
# Type: cell-based
# measurement context: OVXF 899L; OVXF 899, 72 h; read-out: Rel. IC50
quantity name: pIC50
Numbers only, as −log10 of the molar value.

Prompt line: Any idea what its pIC50 is? The compound is "COC(=O)Nc1nc2ccc(C(=O)c3ccccc3)cc2[nH]1"
Response line: 6.40

* * *

# assay name: in vitro
# measurement context: human, cryopreserved hepatocytes (suspension), with mexiletine 10 μM
quantity name: half-life at 1 μM

Prompt line: Any idea what its half-life at 1 μM is? The molecule is COC(=O)Nc1nc2ccc(C(=O)c3ccccc3)cc2[nH]1 [Mebendazole]
Response line: 2.27 h

* * *

# System: 6 ovarian cancer (OVXF) and 6 renal cancer (RXF) cell lines
# assay name: 2D monolayer CellTiter-Blue viability, panel geometric mean (Example 10)
# Assay type: cell-based
# measurement context: 12 cell lines, 72 h; read-out: Geometric mean Abs. IC50
quantity name: pIC50
Numbers only, as −log10 of the molar value.

Prompt line: Value wanted: pIC50 (6 ovarian cancer (OVXF) and 6 renal cancer (RXF) cell lines) of entry "COC(=O)Nc1nc2ccc(C(=O)c3ccccc3)cc2[nH]1"
Response line: 6.03

* * *

# assayed system: UniProt P08183
# Sequence (P08183 whole entry): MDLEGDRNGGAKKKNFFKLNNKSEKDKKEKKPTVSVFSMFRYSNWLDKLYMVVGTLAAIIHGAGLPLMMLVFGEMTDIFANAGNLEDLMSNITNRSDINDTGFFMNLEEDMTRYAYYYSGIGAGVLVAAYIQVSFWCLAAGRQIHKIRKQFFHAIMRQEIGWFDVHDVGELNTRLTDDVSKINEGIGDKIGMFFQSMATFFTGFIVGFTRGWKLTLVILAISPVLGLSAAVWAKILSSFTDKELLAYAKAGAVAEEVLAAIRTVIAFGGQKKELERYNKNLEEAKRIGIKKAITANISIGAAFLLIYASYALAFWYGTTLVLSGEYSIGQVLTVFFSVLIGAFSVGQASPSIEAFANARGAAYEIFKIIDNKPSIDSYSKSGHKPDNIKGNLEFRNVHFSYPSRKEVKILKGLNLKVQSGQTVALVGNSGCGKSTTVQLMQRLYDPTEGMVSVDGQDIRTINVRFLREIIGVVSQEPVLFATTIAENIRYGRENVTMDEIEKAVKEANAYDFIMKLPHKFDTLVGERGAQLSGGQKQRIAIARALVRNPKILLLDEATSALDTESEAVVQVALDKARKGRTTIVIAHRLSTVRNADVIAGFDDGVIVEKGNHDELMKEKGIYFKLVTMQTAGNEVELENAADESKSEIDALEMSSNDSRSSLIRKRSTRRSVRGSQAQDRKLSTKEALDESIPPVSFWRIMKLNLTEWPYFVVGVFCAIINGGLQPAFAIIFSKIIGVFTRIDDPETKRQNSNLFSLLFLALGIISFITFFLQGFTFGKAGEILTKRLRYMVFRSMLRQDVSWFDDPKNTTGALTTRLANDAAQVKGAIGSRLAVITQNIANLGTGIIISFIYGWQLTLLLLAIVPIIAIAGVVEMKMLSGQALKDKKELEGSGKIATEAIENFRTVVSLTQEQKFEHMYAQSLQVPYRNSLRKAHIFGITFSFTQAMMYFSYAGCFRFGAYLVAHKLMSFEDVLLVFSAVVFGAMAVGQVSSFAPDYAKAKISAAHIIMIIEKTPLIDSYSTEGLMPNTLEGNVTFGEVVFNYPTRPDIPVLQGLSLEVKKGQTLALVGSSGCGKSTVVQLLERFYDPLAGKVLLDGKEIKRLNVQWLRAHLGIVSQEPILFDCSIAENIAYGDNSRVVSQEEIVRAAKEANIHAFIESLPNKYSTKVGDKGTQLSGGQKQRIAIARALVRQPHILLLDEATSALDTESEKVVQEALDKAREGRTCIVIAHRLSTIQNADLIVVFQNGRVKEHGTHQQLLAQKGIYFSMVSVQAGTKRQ
# assay name: in vitro
# measurement context: human, Caco-2, Papp Mean
quantity name: Papp A→B at 120 min, 10 μM (×10⁻⁶ cm/s)
Give bare numbers, in ×10⁻⁶ cm/s.

Prompt line: Any idea what its Papp A→B at 120 min, 10 μM is? The compound is "COC(=O)Nc1nc2ccc(C(=O)c3ccccc3)cc2[nH]1"
Response line: 25.4

* * *

# Test system: OVCAR-5
# assay name: 2D monolayer CellTiter-Blue viability, ovarian cancer OVCAR-5
# Format: cell-based
# measurement context: Homo sapiens, OVCAR-5, 72 h; read-out: Abs. IC50
quantity name: pIC50
Numbers only, as −log10 of the molar value.

Prompt line: Any idea what its pIC50 is? The compound is "COC(=O)Nc1nc2ccc(C(=O)c3ccccc3)cc2[nH]1"
Response line: 6.06

* * *

So I've got a bunch of compounds here, and I need their hepatocyte CLint at 1 µM values.
# assay name: Stability in human cryopreserved hepatocytes without and with cimetidine or thiabendazole (Example 6)
# measurement context: human, cryopreserved hepatocytes (suspension), CLint, substrate 1 μM, no inhibitor
Please answer using the number first and the unit second.

# molecule, recorded result
records = [
    ("O=c1ccc2ccc(O)cc2o1", "229 µL/min/1e6 cells"),
]

Prompt line: Any idea what its hepatocyte CLint at 1 µM is? The compound is "CCOc1ccc2ccc(=O)oc2c1"
Response line: 105 µL/min/1e6 cells
